Hi there, I'd appreciate the recorded IC50 for every entry that follows.
Target: Tyrosine-protein kinase JAK3 (Homo sapiens, UniProt P52333)
Sequence (P52333 whole entry): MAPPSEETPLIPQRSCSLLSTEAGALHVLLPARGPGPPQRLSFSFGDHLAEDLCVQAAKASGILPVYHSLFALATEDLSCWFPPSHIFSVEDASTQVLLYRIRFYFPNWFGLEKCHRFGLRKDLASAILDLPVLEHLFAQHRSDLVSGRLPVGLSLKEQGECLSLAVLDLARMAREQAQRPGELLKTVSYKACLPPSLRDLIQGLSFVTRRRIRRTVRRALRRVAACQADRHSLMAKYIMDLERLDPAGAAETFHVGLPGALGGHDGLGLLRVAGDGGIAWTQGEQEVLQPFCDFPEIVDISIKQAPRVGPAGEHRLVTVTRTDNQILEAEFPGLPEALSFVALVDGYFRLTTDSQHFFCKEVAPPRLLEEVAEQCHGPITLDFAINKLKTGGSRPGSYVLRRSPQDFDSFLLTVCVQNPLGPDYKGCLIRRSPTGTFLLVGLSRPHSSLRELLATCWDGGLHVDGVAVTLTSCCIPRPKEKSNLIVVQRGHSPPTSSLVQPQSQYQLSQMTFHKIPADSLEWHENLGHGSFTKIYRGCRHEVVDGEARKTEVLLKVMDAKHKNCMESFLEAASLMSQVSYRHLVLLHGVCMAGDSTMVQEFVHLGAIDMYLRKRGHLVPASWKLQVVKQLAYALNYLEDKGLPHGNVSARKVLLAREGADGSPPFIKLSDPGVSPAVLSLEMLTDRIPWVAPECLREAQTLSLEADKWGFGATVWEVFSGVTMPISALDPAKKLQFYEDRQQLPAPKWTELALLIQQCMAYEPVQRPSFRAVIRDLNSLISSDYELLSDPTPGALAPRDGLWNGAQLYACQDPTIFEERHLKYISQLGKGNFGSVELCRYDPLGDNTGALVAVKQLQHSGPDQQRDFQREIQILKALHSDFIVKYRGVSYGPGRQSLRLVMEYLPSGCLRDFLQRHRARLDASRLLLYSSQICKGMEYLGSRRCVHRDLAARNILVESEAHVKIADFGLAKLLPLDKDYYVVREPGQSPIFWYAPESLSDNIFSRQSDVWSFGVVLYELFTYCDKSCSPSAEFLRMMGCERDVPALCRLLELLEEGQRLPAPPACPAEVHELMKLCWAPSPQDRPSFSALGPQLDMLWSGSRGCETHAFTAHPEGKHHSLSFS
Test: Inhibition of recombinant human JAK3 using GGEEEEYFELVKKKK as substrate incubated for 40 mins in presence of Mg/ATP mixture by [gamma p33]-ATP based scintillation counting method
Field format: number, assumed µM, no unit text.

Query: Identify the reported IC50 for the following entry. N#CCC(=O)N1CCC2(CCC(c3cccc4nc(NC(=O)C5CC5)nn34)CC2)CC1
Result: 2.32

Query: Kindly indicate its recorded IC50. Item: CC(C)(C#N)C(=O)N1CC2(CCC(c3cccc4nc(NC(=O)C5CC5)nn34)CC2)C1
Result: 9.67

Query: Entry O=C(Nc1nc2cccc(C3=CC[C@H](NC(=O)[C@@H]4CC4(F)F)CC3)n2n1)C1CC1 needs its IC50 filled in; supply it.
Result: 5.52

Query: Supply recorded IC50 for O=C(Nc1nc2cccc(C3CCC4(CC3)CCN(C(=O)[C@@H]3CC3(F)F)C4)n2n1)C1CC1 (some centres undefined) here.
Result: 5.76

Values compiled from ChEMBL document CHEMBL5150077.
